Tested On: ALPP (Homo sapiens, UniProt P05187)
Sequence (P05187 with tags, fused parts or gaps): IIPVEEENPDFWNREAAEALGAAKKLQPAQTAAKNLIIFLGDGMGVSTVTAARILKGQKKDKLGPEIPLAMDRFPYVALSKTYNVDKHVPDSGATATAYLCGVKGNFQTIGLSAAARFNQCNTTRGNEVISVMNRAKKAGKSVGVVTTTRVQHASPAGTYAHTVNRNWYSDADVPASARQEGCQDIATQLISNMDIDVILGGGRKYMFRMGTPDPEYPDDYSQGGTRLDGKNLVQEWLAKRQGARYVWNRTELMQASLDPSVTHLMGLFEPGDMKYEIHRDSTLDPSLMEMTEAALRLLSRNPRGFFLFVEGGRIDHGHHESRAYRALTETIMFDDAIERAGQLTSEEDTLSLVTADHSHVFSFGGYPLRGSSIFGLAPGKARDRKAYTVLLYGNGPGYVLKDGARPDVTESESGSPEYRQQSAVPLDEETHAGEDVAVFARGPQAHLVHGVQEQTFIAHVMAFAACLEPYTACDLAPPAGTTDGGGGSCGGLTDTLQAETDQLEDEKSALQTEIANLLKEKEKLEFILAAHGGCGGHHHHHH
Protocol Description: BLI binding kinetics, human ALPP immobilised on AR2G sensors (KD / KD apparent)
Assay Setup: VHH domains
Measured Metric: hALPP Kd (s⁻¹)

Molecule: E11: ALPP targeting VHH domain, SEQ ID NO: 32 (protein) VHH: QVQLVESGGGSVQAGGSLRLSCAASGPSLSNFAMGWFRQPPGKEREFVAGISWGGGRTSYTDSVKGRFTISRDNAKNTVYLQMNNLKPEDTGVYYCAGRYGRGRNVEYEYDYWGQGTQVTVSS
Measured Metric: hALPP Kd
Units Symbol: s⁻¹
Qualifier: =
Observed: 0.0000018
--
Molecule: B01: ALPP/ALPPL2 targeting VHH domain, SEQ ID NO: 20 (protein) VHH: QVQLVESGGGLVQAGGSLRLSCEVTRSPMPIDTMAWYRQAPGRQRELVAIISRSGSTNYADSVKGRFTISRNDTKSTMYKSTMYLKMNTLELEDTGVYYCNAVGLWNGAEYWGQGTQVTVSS
Measured Metric: hALPP Kd
Units Symbol: s⁻¹
Qualifier: =
Observed: 0.000191
--
Molecule: B09: ALPP targeting VHH domain, SEQ ID NO: 21 (protein) VHH: QVQLVESGGGSVQAGGSLRLSCAASGPSLSHYAMGWFRQAPGKEREFVAGISWGGGRTSYTDSVKGRFTISRDNAKNTVYLQMNNLKPEDTGVYYCAGRYGRGRNVEYEYDYWGQGTQVTVSS
Measured Metric: hALPP Kd
Units Symbol: s⁻¹
Qualifier: <
Observed: 1e-07
